So I've got a bunch of compounds here, and I need their melting point values.

Q. Answer with the recorded melting point for the compound listed here: O=C(NC(=O)c1c(F)cccc1F)Nc1ccc2c(c1)C(F)(F)C(F)(F)O2
A. 183 to 184 °C

Q. Answer with the recorded melting point for the compound listed here: CCOC(=O)CCCCCCCCCCNC(=O)CN(CCN(CCN(CC(=O)O)CC(=O)O)CC(=O)O)CC(=O)O
A. 155 to 157 °C

Q. Answer with the recorded melting point for the compound listed here: N#Cc1ccc(C(=O)c2ccc(O)c(F)c2)cc1
A. 168 to 170 °C

Q. Answer with the recorded melting point for the compound listed here: C=CCNc1c([N+](=O)[O-])ccc(Oc2ccc(C#N)cc2)c1Cl
A. 85 to 87 °C

Q. Answer with the recorded melting point for the compound listed here: CC(=O)N(CC(C)C)C1NC(=O)N(c2ccc(C)cc2)C(=O)N1
A. 159 to 160 °C

Q. Answer with the recorded melting point for the compound listed here: CC(C)(C)C1CCc2nc(N)nc(N)c2C1 (stereo not given)
A. > 250 °C

Q. Answer with the recorded melting point for the compound listed here: CCC(CCCCCCCCC(C)(C)CO)N1C(=O)c2cccc([N+](=O)[O-])c2C1=O (stereo not given)
A. 66 to 68 °C

Q. Answer with the recorded melting point for the compound listed here: Nc1c2c(nc3cc(F)ccc13)CCSC2
A. 234 to 237 °C

Q. Answer with the recorded melting point for the compound listed here: CCCCOc1ncc(C(C)O)cc1-c1nc2c(CC)n(C3CN(CC)C3)nc2c(=O)[nH]1 (stereo not given)
A. 117 to 119 °C

Q. Answer with the recorded melting point for the compound listed here: CCCn1c(=O)cc(NNC(=S)NC(C)=O)n(Cc2ccccc2)c1=O
A. 184 to 185 °C

Q. Answer with the recorded melting point for the compound listed here: COC(=O)c1ccc(CNC(C)=O)cc1
A. 110 to 111 °C

Q. Answer with the recorded melting point for the compound listed here: O=C1Cc2cc(Cl)cc(C(=O)c3ccccc3)c2N1
A. 186 to 187 °C

Q. Answer with the recorded melting point for the compound listed here: O=C(O)c1cccc2c1Cc1c-2[nH]c2ccc(F)cc12
A. > 300 °C

Q. Answer with the recorded melting point for the compound listed here: CCC(C)COC(=O)c1ccc(-c2ccc(O)cc2)cc1 (stereo not given)
A. 112 to 113 °C

Q. Answer with the recorded melting point for the compound listed here: O=C(O)c1ccc(C=C2CCc3cc(OCCn4ccnc4)ccc3C2=O)cc1
A. 267 to 268 °C

Q. Answer with the recorded melting point for the compound listed here: CC(C)(C)OC(=O)NCCNc1nnc(N)s1
A. 219 to 220 °C

Q. Answer with the recorded melting point for the compound listed here: N#Cc1cc([N+](=O)[O-])ccc1Oc1c(F)c(F)cc(F)c1F
A. 152 to 154 °C

Q. Answer with the recorded melting point for the compound listed here: COc1ccc(-c2cc(COS(C)(=O)=O)c(=O)n(Cc3ccc(F)cc3)n2)cc1F
A. 125 to 133 °C

Q. Answer with the recorded melting point for the compound listed here: Cn1cc(-c2cc3cccnc3[nH]2)c2cc(OC3(CO)CCC3)ccc21
A. 144 to 146 °C

Q. Answer with the recorded melting point for the compound listed here: CC1(C)CC(=O)c2c(NCc3ccco3)sc(-c3cc[nH]n3)c2C1
A. 204 to 206 °C

Q. Answer with the recorded melting point for the compound listed here: CSc1c(CC(=O)O)ccc2c3ccccc3n(Cc3ccccc3)c12
A. 182 to 183 °C

Q. Answer with the recorded melting point for the compound listed here: COc1ccc(C(=O)N2CCN(CC(=O)N3CC=C(c4cccc(C(F)(F)F)c4)n4ncc(C#N)c43)CC2)cc1
A. 151 to 153 °C

Q. Answer with the recorded melting point for the compound listed here: COCCOC(=O)Nc1cccc(C)c1COc1cccn2c(CO)c(C)nc12
A. 121 to 123 °C

Q. Answer with the recorded melting point for the compound listed here: COc1cc(C=CC(=O)Cc2ccccc2)ccc1O
A. 85 to 87 °C

Q. Answer with the recorded melting point for the compound listed here: CCCCc1nc2c(N)nc3ccc(OCC(=O)N4CCCCC4)cc3c2n1C
A. 222 to 223 °C

Q. Answer with the recorded melting point for the compound listed here: O=C(Nc1cccc(S(=O)(=O)N2CCOCC2)c1)c1cnn2c(C(F)(F)F)cc(-c3ccc(Cl)cc3)nc12
A. 144 °C

Q. Answer with the recorded melting point for the compound listed here: CNC(=O)c1ccc2c(c1C)OC(c1ccccc1)(c1ccccc1)O2
A. 178 to 180 °C

Q. Answer with the recorded melting point for the compound listed here: ON=C(Cc1ccc(F)cc1)c1ccncc1
A. 155 °C

Q. Answer with the recorded melting point for the compound listed here: Cn1cc2c3c(ccc2n1)CCC3=CC#N
A. 189 to 192 °C

Q. Answer with the recorded melting point for the compound listed here: COc1ccc(C(=O)c2ccccc2)c(S)c1
A. 74 to 76 °C

Q. Answer with the recorded melting point for the compound listed here: COc1ccnc(CSc2nc3cscc3n2C(=O)OCc2ccccc2)c1
A. 102 to 104 °C

Q. Answer with the recorded melting point for the compound listed here: O=Cc1ccn(C2=CC3=C(CC2)CCc2[nH]c(=O)c(=O)n(CC(=O)O)c23)c1
A. > 250 °C

Q. Answer with the recorded melting point for the compound listed here: COC(=O)c1ccc(Br)c(S)c1
A. 81 °C

Q. Answer with the recorded melting point for the compound listed here: O=C(Oc1ccccc1)N1CCC2(CC1)c1ccccc1Sc1ccccc12
A. 149 to 151 °C

Q. Answer with the recorded melting point for the compound listed here: Nc1ccc(S(=O)(=O)c2cc(Br)nc(N3CCNCC3)c2)cc1
A. 173 to 175 °C

Q. Answer with the recorded melting point for the compound listed here: O=C(c1cccs1)c1cnn2c(-c3cccc(-c4nnn(CC5CCC5)n4)c3)ccnc12
A. 170 °C

Q. Answer with the recorded melting point for the compound listed here: CC(C)OC(=O)N=C1SCS1
A. 72 to 73 °C

Q. Answer with the recorded melting point for the compound listed here: COC(=O)c1cc(N)c2cc(Cc3ccc(F)cc3)cnc2c1O
A. 114 to 115 °C

Q. Answer with the recorded melting point for the compound listed here: CC(C)COc1ccc(C(=O)N/C(=C\c2ccc(C(F)(F)F)cc2)C(=O)NCCO)cc1
A. 207 to 210 °C

Q. Answer with the recorded melting point for the compound listed here: Oc1cc(CBr)c2oc(-c3ccc(O)c(F)c3)cc2c1
A. 269 to 271 °C
